ASSAY EXPLANATION: Plasma pharmacokinetics and bioavailability after intravenous and oral dosing
Format: in vivo
EXPERIMENTAL CONTEXT: mouse, other: oral gavage and intravenous bolus
ASSAY READOUT: half-life (h)
One number for each entry, in h.

Request: Look at this compound and give its reported half-life. C[C@@H]1C[C@@H](n2cnc(C(N)=O)c2N)[C@H](O)[C@H]1O
Result: 5.7
